- target-system: Tyrosine-protein kinase JAK3 (Homo sapiens, UniProt P52333)
- Sequence (P52333 whole entry): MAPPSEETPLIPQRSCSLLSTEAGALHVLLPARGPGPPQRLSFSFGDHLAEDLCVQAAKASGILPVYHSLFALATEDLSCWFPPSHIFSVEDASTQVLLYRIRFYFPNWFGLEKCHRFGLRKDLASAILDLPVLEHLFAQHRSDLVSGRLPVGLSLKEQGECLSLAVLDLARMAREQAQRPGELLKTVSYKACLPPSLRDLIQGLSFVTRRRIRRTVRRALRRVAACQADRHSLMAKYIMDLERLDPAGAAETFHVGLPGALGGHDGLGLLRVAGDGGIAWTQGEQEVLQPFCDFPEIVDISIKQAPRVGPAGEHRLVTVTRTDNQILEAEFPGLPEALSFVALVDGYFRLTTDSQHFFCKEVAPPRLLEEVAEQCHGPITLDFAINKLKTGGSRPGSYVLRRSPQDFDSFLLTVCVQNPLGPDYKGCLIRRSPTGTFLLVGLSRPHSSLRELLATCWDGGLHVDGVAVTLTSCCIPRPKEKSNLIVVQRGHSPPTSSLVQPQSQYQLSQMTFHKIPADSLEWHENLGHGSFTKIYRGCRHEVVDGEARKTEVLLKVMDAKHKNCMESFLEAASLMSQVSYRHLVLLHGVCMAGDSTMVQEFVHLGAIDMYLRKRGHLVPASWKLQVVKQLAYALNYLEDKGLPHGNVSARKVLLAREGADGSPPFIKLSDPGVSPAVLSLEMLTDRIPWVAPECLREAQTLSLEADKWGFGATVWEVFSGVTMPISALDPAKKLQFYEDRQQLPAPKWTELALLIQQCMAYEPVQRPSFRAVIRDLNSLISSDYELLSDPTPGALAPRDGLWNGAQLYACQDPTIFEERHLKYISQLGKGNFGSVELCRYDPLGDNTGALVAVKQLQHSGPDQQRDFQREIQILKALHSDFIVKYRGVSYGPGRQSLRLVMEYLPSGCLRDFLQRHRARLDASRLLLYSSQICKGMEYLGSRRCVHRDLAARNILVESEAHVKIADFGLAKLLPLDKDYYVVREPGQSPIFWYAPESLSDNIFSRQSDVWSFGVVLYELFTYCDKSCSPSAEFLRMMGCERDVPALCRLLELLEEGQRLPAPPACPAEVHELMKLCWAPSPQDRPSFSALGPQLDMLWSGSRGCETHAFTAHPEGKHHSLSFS

structure-notation | IC50 / nM
c1ccc(-c2c(-c3ccc(OCCN4CCCC4)cc3)oc3ncnc(NCCN4CCNCC4)c23)cc1 | 960
CC(C)Nc1ncnc2oc(-c3ccc(OCCN4CCCC4)cc3)c(-c3ccccc3)c12 | 1430

---

Readings of IC50 for the listed compounds
- Tested on: T-cell
- protocol-summary: Inhibition of anti-CD3/CD28-induced IL2 secretion in human T cells
- Format: functional, cell-based

structure-notation | IC50 [µM]
c1ccc(-c2oc3ncnc(NCCN4CCNCC4)c3c2-c2ccccc2)cc1 | 0.69
c1ccc(CCNc2ncnc3oc(-c4ccc(OCCN5CCCC5)cc4)c(-c4ccccc4)c23)cc1 | 5.72
CN(C)CCOc1ccc(-c2oc3ncnc(NCCN4CCNCC4)c3c2-c2ccccc2)cc1 | 0.468
c1ccc(-c2c(-c3ccc(OCCN4CCCC4)cc3)oc3ncnc(NC[C@@H]4CCCO4)c23)cc1 | 0.435
c1ccc(-c2c(-c3ccc(OCCN4CCCC4)cc3)oc3ncnc(NCCN4CCNCC4)c23)cc1 | 0.43
CN(C)CCOc1ccc(-c2oc3ncnc(NC[C@@H]4CCCO4)c3c2-c2ccccc2)cc1 | 0.119
CN1CCN(Cc2ccc(-c3oc4ncnc(NC[C@@H]5CCCO5)c4c3-c3ccccc3)cc2)CC1 | 0.293
c1ccc(-c2oc3ncnc(NC[C@@H]4CCCO4)c3c2-c2ccccc2)cc1 | 2.41
CC(C)Nc1ncnc2oc(-c3ccc(OCCN4CCCC4)cc3)c(-c3ccccc3)c12 | 0.199

---

- protocol-summary: Cmax in Sprague-Dawley rat at 5 mg/kg, po
- Format: ADME, organism-based
- Parameters: dose 5 mg/kg, route oral
- test-parameters: in vivo
metric: Cmax (ng/mL)

structure-notation | metric | endpoint-result
c1ccc(-c2oc3ncnc(NCCN4CCNCC4)c3c2-c2ccccc2)cc1 | Cmax | 180

---

- target-system: Activated CDC42 kinase 1 (Homo sapiens, UniProt Q07912)
- Sequence (Q07912 whole entry): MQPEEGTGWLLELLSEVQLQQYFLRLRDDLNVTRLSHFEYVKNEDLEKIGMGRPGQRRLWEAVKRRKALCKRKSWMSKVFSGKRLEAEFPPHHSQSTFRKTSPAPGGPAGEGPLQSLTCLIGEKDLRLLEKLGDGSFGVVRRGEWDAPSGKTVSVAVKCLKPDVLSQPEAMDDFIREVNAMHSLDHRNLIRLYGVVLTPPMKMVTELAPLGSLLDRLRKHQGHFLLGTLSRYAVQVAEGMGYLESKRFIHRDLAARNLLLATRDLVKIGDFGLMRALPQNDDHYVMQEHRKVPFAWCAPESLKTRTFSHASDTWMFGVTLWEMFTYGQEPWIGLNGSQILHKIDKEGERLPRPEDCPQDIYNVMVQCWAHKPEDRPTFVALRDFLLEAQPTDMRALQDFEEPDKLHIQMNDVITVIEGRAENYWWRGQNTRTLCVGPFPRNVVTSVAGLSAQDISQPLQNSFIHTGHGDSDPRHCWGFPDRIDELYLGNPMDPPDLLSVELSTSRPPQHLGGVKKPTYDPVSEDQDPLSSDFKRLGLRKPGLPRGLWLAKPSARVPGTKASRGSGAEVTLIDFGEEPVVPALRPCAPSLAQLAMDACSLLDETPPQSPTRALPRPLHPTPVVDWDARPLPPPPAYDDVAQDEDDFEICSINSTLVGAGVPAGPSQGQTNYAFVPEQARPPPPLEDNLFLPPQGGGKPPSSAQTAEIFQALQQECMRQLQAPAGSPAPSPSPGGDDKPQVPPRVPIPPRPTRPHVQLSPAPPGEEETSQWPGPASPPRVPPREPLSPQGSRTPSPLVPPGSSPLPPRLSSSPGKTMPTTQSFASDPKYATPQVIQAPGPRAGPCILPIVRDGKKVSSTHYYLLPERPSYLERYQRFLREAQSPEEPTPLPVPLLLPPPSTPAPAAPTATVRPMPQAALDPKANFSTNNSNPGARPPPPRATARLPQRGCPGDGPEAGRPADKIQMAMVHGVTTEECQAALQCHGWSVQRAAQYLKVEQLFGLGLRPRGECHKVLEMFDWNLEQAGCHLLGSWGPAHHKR
- protocol-summary: Inhibition of Ack1
Readings of IC50 for the listed compounds
metric: IC50 (nM)

structure-notation | target-system | unit-symbol | endpoint-result
COc1cc(-c2oc3ncnc(NC[C@@H]4CCCO4)c3c2-c2ccccc2)ccc1OCCN1CCCCC1 | Activated CDC42 kinase 1 (Homo sapiens, UniProt Q07912) | nM | 38
CN1CCN(Cc2ccc(-c3oc4ncnc(NC[C@@H]5CCCO5)c4c3-c3ccccc3)cc2)CC1 | Activated CDC42 kinase 1 (Homo sapiens, UniProt Q07912) | nM | 7
c1ccc(-c2oc3ncnc(NC[C@@H]4CCCO4)c3c2-c2ccccc2)cc1 | Activated CDC42 kinase 1 (Homo sapiens, UniProt Q07912) | nM | 24
CC(C)(C)Nc1ncnc2oc(-c3ccc(OCCN4CCCC4)cc3)c(-c3ccccc3)c12 | Activated CDC42 kinase 1 (Homo sapiens, UniProt Q07912) | nM | 650
c1ccc(-c2c(-c3ccc(N4CCOCC4)cc3)oc3ncnc(NCCN4CCNCC4)c23)cc1 | Activated CDC42 kinase 1 (Homo sapiens, UniProt Q07912) | nM | 17
c1ccc(-c2c(-c3ccc(OCCN4CCCC4)cc3)oc3ncnc(NCCC4CCNCC4)c23)cc1 | Activated CDC42 kinase 1 (Homo sapiens, UniProt Q07912) | nM | 332
c1ccc(-c2c(-c3ccc(OCCN4CCCC4)cc3)oc3ncnc(NCCN4CCNCC4)c23)cc1 | Activated CDC42 kinase 1 (Homo sapiens, UniProt Q07912) | nM | 98
c1ccc(CCNc2ncnc3oc(-c4ccc(OCCN5CCCC5)cc4)c(-c4ccccc4)c23)cc1 | Activated CDC42 kinase 1 (Homo sapiens, UniProt Q07912) | nM | 1
CN(C)CCOc1ccc(-c2oc3ncnc(NC[C@@H]4CCCO4)c3c2-c2ccccc2)cc1 | Activated CDC42 kinase 1 (Homo sapiens, UniProt Q07912) | nM | 11
CC(C)Nc1ncnc2oc(-c3ccc(OCCN4CCCC4)cc3)c(-c3ccccc3)c12 | Activated CDC42 kinase 1 (Homo sapiens, UniProt Q07912) | nM | 78

---

- protocol-summary: Oral bioavailability in Sprague-Dawley rat at 5 mg/kg
- Format: ADME, organism-based
- test-parameters: in vivo
metric: bioavailability (%)

structure-notation | metric | endpoint-result
c1ccc(-c2oc3ncnc(NCCN4CCNCC4)c3c2-c2ccccc2)cc1 | bioavailability | 15

---

Reported pIC50, UniProt:O60674.
Sequence (O60674 whole entry): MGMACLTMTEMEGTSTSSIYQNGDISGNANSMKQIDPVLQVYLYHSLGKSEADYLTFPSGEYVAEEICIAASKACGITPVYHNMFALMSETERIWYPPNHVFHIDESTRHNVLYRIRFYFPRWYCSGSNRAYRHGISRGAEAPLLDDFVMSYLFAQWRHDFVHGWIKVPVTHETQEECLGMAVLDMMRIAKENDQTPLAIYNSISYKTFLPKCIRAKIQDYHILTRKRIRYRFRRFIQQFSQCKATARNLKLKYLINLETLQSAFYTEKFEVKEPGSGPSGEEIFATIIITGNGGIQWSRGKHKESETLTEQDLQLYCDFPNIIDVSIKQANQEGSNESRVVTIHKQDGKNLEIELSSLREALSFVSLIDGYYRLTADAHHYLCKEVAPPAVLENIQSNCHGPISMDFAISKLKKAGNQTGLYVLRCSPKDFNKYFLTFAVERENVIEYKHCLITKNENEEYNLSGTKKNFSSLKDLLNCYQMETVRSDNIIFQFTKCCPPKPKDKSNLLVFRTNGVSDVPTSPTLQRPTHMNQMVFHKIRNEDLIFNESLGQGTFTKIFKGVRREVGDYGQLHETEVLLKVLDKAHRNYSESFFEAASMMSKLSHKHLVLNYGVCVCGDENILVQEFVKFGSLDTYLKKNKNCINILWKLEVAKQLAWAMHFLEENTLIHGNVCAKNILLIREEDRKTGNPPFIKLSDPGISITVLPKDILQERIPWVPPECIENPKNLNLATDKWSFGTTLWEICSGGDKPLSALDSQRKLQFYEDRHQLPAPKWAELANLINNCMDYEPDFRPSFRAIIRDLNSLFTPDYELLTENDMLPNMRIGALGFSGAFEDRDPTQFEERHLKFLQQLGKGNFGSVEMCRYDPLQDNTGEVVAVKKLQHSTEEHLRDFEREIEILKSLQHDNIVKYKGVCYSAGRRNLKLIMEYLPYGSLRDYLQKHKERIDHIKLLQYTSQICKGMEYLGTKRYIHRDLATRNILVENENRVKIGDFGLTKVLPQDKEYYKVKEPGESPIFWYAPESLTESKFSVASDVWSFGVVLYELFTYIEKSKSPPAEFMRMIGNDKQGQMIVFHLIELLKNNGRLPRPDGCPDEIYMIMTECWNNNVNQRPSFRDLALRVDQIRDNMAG
pIC50: −log10 of the molar value.

structure-notation | value-qualifier | pIC50
CC(C)Nc1ncnc2oc(-c3ccc(OCCN4CCCC4)cc3)c(-c3ccccc3)c12 | = | 5.31
c1ccc(-c2c(-c3ccc(OCCN4CCCC4)cc3)oc3ncnc(NCCN4CCNCC4)c23)cc1 | < | 5.08

---

Sequence of the target: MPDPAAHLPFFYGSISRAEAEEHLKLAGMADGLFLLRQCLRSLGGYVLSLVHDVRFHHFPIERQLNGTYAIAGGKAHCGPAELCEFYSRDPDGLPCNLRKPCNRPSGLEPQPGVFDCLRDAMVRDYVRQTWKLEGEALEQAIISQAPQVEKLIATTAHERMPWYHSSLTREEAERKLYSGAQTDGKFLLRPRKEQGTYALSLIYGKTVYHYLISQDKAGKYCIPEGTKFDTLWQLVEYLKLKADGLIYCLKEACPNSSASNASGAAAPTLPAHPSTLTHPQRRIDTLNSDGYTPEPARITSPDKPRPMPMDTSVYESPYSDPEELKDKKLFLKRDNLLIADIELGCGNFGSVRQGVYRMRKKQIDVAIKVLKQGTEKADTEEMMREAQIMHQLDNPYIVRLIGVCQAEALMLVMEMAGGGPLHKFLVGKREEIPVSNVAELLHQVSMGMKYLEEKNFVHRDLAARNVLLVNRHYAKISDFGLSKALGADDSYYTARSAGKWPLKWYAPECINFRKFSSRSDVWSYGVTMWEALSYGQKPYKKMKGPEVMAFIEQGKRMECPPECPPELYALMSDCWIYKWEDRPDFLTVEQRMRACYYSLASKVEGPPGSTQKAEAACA
pIC50: −log10 of the molar value.
Readings of pIC50 for the listed molecules

structure-notation | pIC50
c1ccc(-c2c(-c3ccc(OCCN4CCCC4)cc3)oc3ncnc(NCCN4CCNCC4)c23)cc1 | 6.00
CC(C)Nc1ncnc2oc(-c3ccc(OCCN4CCCC4)cc3)c(-c3ccccc3)c12 | 5.49

---

- target-system: Activated CDC42 kinase 1 (Homo sapiens, UniProt Q07912)
- protocol-summary: Inhibition of Ack1

structure-notation | unit-symbol | IC50
c1ccc(-c2oc3ncnc(NC[C@H]4CCCO4)c3c2-c2ccccc2)cc1 | nM | 523
CCN1CCN(C(=O)c2ccc(-c3oc4ncnc(NC[C@@H]5CCCO5)c4c3-c3ccccc3)cc2)CC1 | nM | 13
O=C(c1ccc(-c2oc3ncnc(NCCN4CCNCC4)c3c2-c2ccccc2)cc1)N1CCCCC1 | nM | 85
c1ccc(-c2c(-c3ccc(OCCN4CCCC4)cc3)oc3ncnc(NC[C@@H]4CCCO4)c23)cc1 | nM | 16
COc1cc(-c2oc3ncnc(NCCN4CCNCC4)c3c2-c2ccccc2)ccc1OCCN1CCCCC1 | nM | 586
c1ccc(-c2oc3ncnc(NCCN4CCNCC4)c3c2-c2ccccc2)cc1 | nM | 181
CN1CCOc2cc(-c3oc4ncnc(NCCN5CCNCC5)c4c3-c3ccccc3)ccc21 | nM | 97
c1ccc(-c2c(-c3ccc(CN4CCOCC4)cc3)oc3ncnc(NCCN4CCNCC4)c23)cc1 | nM | 91
CN(C)CCOc1ccc(-c2oc3ncnc(NCCN4CCNCC4)c3c2-c2ccccc2)cc1 | nM | 148

Recorded values, source ChEMBL document CHEMBL1139142.
